Overview of recorded EC50 for various compounds
# ASSAY: Inhibition of wild-type HIV1 3B reverse transcriptase infected in human MT4 cells assessed as protection against virus-induced cytopathic effect measured 5 days post infection by MTT assay
# number only, unit nM dropped from output

SMILES CODE	RESULT
CCN(c1nc(Nc2ccc(C#N)cc2)nc(Oc2c(C)cc(C)cc2C)n1)N1CCOCC1	7.8

Q. Endpoint output: EC50 of Cc1cc(C#Cc2cccnc2)cc(C)c1Oc1ccnc(Nc2ccc(C#N)cc2)n1 . Value?
A. 3

Q. Would you kindly repeat that for Cc1cc(C#CCCO)cc(C)c1Oc1ccnc(Nc2ccc(C#N)cc2)n1 ?
A. 3

###

# ASSAY: Inhibition of HIV1 reverse transcriptase K103N/Y181C double mutant infected in human MT4 cells harboring GFP by scanning microscopic analysis
READOUT LABEL: EC50 (µM)
# number only, unit µM dropped from output

SMILES CODE	EC50 [µM]
CN(C)CCNC(=O)c1cnc(Nc2ccc(C#N)cc2)nc1Nc1ccc(/C=C/C#N)cc1	0.02
N#C/C=C/c1ccc(Nc2nc(Nc3ccc(C#N)cc3)ncc2C(=O)NCCCN2CCCC2)cc1	0.016
N#C/C=C/c1ccc(Nc2cc(NCCCN3CCOCC3)nc(Nc3ccc(C#N)cc3)n2)cc1	0.098

Then there is this compound:
Q. Endpoint output: EC50 of N#C/C=C/c1ccc(Nc2cc(NCCc3ccc(S(N)(=O)=O)cc3)nc(Nc3ccc(C#N)cc3)n2)cc1 . Value?
A. 0.091

###

# ASSAY: Inhibition of HIV1 reverse transcriptase E138K mutant infected in human MT4 cells assessed as protection against virus-induced cytopathic effect measured 5 days post infection by MTT assay
READOUT LABEL: EC50 (nM)
# number only, unit nM dropped from output

Q. Endpoint output: EC50 of Cc1cc(C#Cc2cccnc2)cc(C)c1Oc1ccnc(Nc2ccc(C#N)cc2)n1 . Value?
A. 22

###

# ASSAY: Inhibition of HIV1 reverse transcriptase L100I/K103N double mutant infected in human MT4 cells assessed as protection against virus-induced cytopathic effect by MTT assay
Overview of recorded IC50 for various compounds
# number only, unit nM dropped from output

SMILES CODE	RESULT
Cc1cc(C#N)cc(C)c1Nc1nc(Nc2ccc(C#N)cc2)ncc1Cl	144
Cc1cc(C#N)cc(C)c1Nc1nc(Nc2ccc(C#N)cc2)ncc1Br	37

Q. Endpoint output: IC50 of C#Cc1cnc(Nc2ccc(C#N)cc2)nc1Nc1c(C)cc(C)cc1C . Value?
A. 71

###

# ASSAY: Inhibition of HIV1 reverse transcriptase L100I/K103N double mutant infected in human MT4 cells assessed as protection against virus-induced cytopathic effect by MTT assay
Overview of recorded IC50 for various compounds

Answered examples (2):
SMILES CODE	RESULT
Cc1cc(C#N)cc(C)c1Oc1nc(Nc2ccc(C#N)cc2)ncc1[N+](=O)[O-]	> 10 µM
C=Cc1cnc(Nc2ccc(C#N)cc2)nc1Nc1c(C)cc(C)cc1C	> 100 µM

Q. Endpoint output: IC50 of Cc1cnc(Nc2ccc(C#N)cc2)nc1Nc1c(C)cc(C#N)cc1C . Value?
A. > 10 µM
